molecular target: G2019S LRRK2 (Homo sapiens, UniProt Q5S007, G2019S); construct: expressed in transfected cells; host or cells: HEK293 (ATCC CRL-1573), transient transfection, ubiquitin promoter; assay: LRRK2 degradation assay, G2019S LRRK2-HiBit expressed from plasmid in HEK293 cells; assay type: cell-based; settings: HEK293 cells transfected with HiBit-tagged G2019S LRRK2, 24 hours compound incubation
Sequence (Q5S007 whole entry G2019S): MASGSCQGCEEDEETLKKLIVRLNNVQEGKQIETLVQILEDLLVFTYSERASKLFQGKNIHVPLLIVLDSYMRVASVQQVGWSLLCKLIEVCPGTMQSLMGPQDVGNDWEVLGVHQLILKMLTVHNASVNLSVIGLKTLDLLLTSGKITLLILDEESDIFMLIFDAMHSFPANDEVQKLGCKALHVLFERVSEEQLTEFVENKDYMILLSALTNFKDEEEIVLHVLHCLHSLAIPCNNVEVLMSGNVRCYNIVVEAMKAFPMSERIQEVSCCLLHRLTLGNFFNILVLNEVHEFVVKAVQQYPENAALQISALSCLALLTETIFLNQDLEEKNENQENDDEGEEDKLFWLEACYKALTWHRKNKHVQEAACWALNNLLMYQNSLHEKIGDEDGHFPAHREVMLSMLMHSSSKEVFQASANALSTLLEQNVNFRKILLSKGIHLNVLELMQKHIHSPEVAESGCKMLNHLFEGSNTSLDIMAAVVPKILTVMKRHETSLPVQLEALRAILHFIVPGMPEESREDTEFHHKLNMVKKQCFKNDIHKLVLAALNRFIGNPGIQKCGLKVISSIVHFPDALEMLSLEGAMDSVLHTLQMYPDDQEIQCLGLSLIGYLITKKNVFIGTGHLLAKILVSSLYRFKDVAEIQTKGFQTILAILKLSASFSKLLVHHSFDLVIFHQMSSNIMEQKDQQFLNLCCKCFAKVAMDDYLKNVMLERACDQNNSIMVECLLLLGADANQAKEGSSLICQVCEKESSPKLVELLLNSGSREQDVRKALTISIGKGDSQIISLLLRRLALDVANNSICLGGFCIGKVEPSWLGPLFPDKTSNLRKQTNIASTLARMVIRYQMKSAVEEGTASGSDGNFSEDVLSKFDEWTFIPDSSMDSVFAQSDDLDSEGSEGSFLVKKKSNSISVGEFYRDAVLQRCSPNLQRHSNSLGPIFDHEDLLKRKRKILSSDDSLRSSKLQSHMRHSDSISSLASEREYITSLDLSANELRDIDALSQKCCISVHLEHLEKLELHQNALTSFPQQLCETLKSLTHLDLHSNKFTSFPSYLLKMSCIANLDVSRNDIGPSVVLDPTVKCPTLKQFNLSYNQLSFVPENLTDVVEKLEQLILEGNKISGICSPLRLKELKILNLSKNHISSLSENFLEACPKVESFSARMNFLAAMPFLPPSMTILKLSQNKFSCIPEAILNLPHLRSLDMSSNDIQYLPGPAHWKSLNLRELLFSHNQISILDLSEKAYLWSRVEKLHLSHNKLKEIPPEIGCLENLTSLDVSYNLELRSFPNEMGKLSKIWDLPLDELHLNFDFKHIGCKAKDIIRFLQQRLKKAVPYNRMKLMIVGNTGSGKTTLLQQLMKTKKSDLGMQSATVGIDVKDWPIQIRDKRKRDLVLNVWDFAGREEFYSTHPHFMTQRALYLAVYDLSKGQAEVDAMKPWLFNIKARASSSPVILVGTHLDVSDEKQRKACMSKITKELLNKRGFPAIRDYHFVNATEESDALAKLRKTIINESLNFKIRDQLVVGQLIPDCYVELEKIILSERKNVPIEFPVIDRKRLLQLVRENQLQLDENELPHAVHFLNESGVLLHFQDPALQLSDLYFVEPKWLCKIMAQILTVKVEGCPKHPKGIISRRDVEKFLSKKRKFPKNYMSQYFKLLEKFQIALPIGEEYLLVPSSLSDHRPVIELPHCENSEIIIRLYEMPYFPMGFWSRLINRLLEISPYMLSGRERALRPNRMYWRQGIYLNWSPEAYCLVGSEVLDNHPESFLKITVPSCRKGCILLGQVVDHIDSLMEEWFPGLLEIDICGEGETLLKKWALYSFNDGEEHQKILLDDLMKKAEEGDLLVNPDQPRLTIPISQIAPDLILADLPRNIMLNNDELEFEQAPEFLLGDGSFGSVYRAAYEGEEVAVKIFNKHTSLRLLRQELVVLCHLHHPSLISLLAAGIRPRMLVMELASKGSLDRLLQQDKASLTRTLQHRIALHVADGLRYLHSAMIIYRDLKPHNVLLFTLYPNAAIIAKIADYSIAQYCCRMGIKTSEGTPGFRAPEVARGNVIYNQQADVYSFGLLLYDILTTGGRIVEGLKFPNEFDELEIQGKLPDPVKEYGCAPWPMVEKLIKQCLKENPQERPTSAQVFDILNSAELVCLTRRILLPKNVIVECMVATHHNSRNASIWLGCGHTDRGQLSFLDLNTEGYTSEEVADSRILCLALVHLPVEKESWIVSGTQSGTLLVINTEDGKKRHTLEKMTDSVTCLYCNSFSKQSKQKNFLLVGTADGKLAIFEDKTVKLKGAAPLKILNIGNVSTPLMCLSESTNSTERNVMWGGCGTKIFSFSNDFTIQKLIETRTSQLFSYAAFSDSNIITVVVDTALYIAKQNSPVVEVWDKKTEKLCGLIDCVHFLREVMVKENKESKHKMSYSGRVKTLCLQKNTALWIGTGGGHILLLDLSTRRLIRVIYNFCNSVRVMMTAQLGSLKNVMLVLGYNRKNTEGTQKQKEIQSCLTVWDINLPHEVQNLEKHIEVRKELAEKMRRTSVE
ENDPOINT NAME: DC50

Before answering, review these 2 worked examples.
Ask: Quick one: give measured DC50 for CC(C)Oc1ccc2[nH]nc(-c3cc(N4CCN(CCN5CCC(CN6CCN(c7ccc8c(c7)CN(C7CCC(=O)NC7=O)C8=O)CC6)CC5)[C@@H](C)C4)ncn3)c2c1 (stereo partly drawn)
Result: 10 to 50 nM

Ask: Quick one: give measured DC50 for CC(C)Oc1ccc2[nH]nc(-c3cc(N4CCN(CCN5CC(CN6CCN(c7ccc8c(c7)C(=O)N(C7CCC(=O)NC7=O)C8=O)CC6)C5)CC4)ncn3)c2c1 (stereo not drawn)
Result: ≥ 100 nM

Consider the additional compound presented here.
Ask: Quick one: give measured DC50 for CC(C)Oc1ccc2[nH]nc(-c3cc(N4CCO[C@@H](CCN5CCN(CC6CCN(c7ccc8c(c7)C(=O)N(C7CCC(=O)NC7=O)C8=O)CC6)CC5)C4)ncn3)c2c1 (stereo partly drawn)
Result: < 10 nM
